# measured_target: T1, cyIL1RAP-His (Lake Pharma) (cynomolgus monkey, UniProt A0A2K5X5J5 21-367)
# T1 construct: Bought protein (Lake Pharma, lot 16205819371); also called cynomolgus IL1RAP; monkey IL1RAP; not shown: His tag
# T1 sequence: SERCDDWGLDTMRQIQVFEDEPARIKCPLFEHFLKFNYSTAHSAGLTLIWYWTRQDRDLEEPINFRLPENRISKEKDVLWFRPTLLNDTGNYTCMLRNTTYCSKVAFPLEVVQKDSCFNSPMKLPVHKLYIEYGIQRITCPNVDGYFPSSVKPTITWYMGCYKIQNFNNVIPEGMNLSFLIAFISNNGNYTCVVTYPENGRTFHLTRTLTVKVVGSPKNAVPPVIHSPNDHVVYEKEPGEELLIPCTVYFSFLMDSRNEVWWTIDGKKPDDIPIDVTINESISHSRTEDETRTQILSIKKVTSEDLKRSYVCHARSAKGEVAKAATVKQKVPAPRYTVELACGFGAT
# experiment_description: Octet BLI; mAb captured on anti-mouse IgG Fc sensor; cyIL1RAP-His analyte
measured_property: Kd (nM)
Supply the numeric figure in nM, leaving out any unit text.

# input Which Kd is listed for STLX2012 (antibody, V domains shown, Purified from hybridoma of immunized Alivamab mice; intact IgG; captured on anti-mouse IgG Fc sensors in Octet; kappa light chain; also called 74804_12A21B) VH: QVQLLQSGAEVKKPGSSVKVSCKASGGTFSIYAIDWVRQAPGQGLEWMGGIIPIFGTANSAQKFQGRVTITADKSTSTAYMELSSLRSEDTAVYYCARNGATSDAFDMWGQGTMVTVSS VL: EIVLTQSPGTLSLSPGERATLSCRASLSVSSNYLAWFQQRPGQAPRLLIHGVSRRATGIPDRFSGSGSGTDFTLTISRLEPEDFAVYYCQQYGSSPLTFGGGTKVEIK ?
# output 1.29
